Tested on: S. japonicum adult worms
Test: Schistosomicidal activity ex vivo, S. japonicum adult worms
Format: cell-based
Settings: Schistosoma japonicum; S. japonicum adult worms, 48 hr, Conc. 5 µM
Method: Three-week old, female Swiss-Webster mice obtained from the Charles River were housed in the Comparative Research Center of Rush University Medical Center. […] DMSO formulated compounds were diluted with phenol red free M199 medium or RPMI medium for NTS or juvenile and adult worms, respectively, at <1% DMSO final concentrations. […] Schistosome viabilities in the presence of the compounds were assessed using this formula: % Viability = Averages of Test / Averages of DMSO Control x 100.
MEASUREMENT_NAME: viability at 5 µM (%)

> print(dat)
                                test.smiles   measurement.name  observed.measurement
1  CCc1ccccc1-c1nc(CN[C@@H]2C[C@@H]3C[C@H]([C@H]2C)C3(C)C)c(C)o1  viability at 5 µM                  52.5
2  Cc1oc(C2CCCCC2)nc1C(=O)N[C@@H]1C[C@@H]2C[C@H]([C@H]1C)C2(C)C  viability at 5 µM                    89
3  C[C@@H]1[C@H]2C[C@@H](C[C@H]1NCc1nc3ccccc3n1C1CCCCCC1)C2(C)C  viability at 5 µM                  70.6
4  Cc1oc(-c2ccc3c(c2)OCO3)nc1CN[C@@H]1C[C@@H]2C[C@H]([C@H]1C)C2(C)C  viability at 5 µM                  87.9

###

Molecular target: TGR (Schistosoma mansoni, UniProt Q962Y6)
Construct: made in house
Assay: Thermal shift assay (TSA)
Format: binding
Settings: without NADPH
Experimental: Samples were prepared by using a final concentration of 0.25 mg/ml TGR diluted in TGR reaction buffer to the desired volume. To evaluate reduced TGR, 500 µM NADPH was added. […] After the preincubation period, 20 µL samples were pipetted into a BioRad un-skirted PCR 96 well plate and sealed with MicroAmp^TM Optical Adhesive film. […] The SYBR green channel was used to detect fluorescence as the wavelength of flavin fluorescence overlaps with that of SYBR green. […]
MEASUREMENT_NAME: effect on Tm of oxidized TGR

> print(dat)
                                test.smiles              measurement.name  observed.measurement
1  C[C@@H]1[C@H]2C[C@@H](C[C@H]1NCc1nc3ccccc3n1C)C2(C)C  effect on Tm of oxidized TGR             no effect
2  C[C@@H]1[C@H]2C[C@@H](C[C@H]1NCc1cc(-c3ccccc3)[nH]n1)C2(C)C  effect on Tm of oxidized TGR             no effect

###

tested on: S. japonicum adult worms; assay: Schistosomicidal activity ex vivo, S. japonicum adult worms; type: cell-based; details: 48 h exposure
MEASUREMENT_NAME: LD50 ex vivo S. japonicum adult (µM)

> print(dat)
                                test.smiles     target.or.test.system                 measurement.name  observed.measurement
1  Cc1oc(C2CCCCC2)nc1C(=O)N[C@@H]1C[C@@H]2C[C@H]([C@H]1C)C2(C)C  S. japonicum adult worms  LD50 ex vivo S. japonicum adult                  26.8
2  Cc1oc(-c2ccc3c(c2)OCO3)nc1CN[C@@H]1C[C@@H]2C[C@H]([C@H]1C)C2(C)C  S. japonicum adult worms  LD50 ex vivo S. japonicum adult                  19.6
3  C[C@@H]1[C@H]2C[C@@H](C[C@H]1NCc1nc3ccccc3n1C1CCCCCC1)C2(C)C  S. japonicum adult worms  LD50 ex vivo S. japonicum adult                  25.8
4  CCc1ccccc1-c1nc(CN[C@@H]2C[C@@H]3C[C@H]([C@H]2C)C3(C)C)c(C)o1  S. japonicum adult worms  LD50 ex vivo S. japonicum adult                  11.1
5  Cc1oc(-c2ccccc2)nc1CN[C@@H]1C[C@@H]2C[C@H]([C@H]1C)C2(C)C  S. japonicum adult worms  LD50 ex vivo S. japonicum adult                  13.9
6  Cc1oc(C2CCCCC2)nc1CN[C@@H]1C[C@@H]2C[C@H]([C@H]1C)C2(C)C  S. japonicum adult worms  LD50 ex vivo S. japonicum adult                  27.1

###

Measured avg % inhib, 0.5 hr, listed per entry for reference.
target: TGR (Schistosoma mansoni); construct: made in house; assay: Time dependence of inhibition; assay type: biochemical; design: tested at 50 µM; details: panel d Time Dependence; 0.5 hr; average
MEASUREMENT_NAME: avg % inhib, 0.5 hr

> print(dat)
                                test.smiles     measurement.name  observed.measurement
1      Cc1oc(-c2ccc3ccccc3c2)nc1CNC1CCCCCC1  avg % inhib, 0.5 hr              19.3871%
2  Cc1oc(-c2ccc3c(c2)OCO3)nc1CN[C@@H]1C[C@@H]2C[C@H]([C@H]1C)C2(C)C  avg % inhib, 0.5 hr               -1.077%
3  Cc1oc(-c2ccccc2)nc1CN[C@@H]1C[C@@H]2C[C@H]([C@H]1C)C2(C)C  avg % inhib, 0.5 hr              24.9564%
4  Cc1oc(C2CCCCC2)nc1CN[C@@H]1C[C@@H]2C[C@H]([C@H]1C)C2(C)C  avg % inhib, 0.5 hr              18.4758%

###

tested on: TGR in newly transformed schistosomula (NTS); assay: TGR inhibition in NTS with TRFS-Green fluorescent probe;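 note: untreated reference is NTS exposed to TRFS-Green probe alone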; assay type: cell-based, S. mansoni; conditions: NTS, 2hr, 5 µM
MEASUREMENT_NAME: TGR inhibition visualized by TRFS-Green, Average

> print(dat)
                                test.smiles  observed.measurement
1  Cc1oc(C2CCCCC2)nc1CN[C@@H]1C[C@@H]2C[C@H]([C@H]1C)C2(C)C                 19189
2  C[C@@H]1[C@H]2C[C@@H](C[C@H]1NCc1nc3ccccc3n1C)C2(C)C               23845.5
3  CCc1ccccc1-c1nc(CN[C@@H]2C[C@@H]3C[C@H]([C@H]2C)C3(C)C)c(C)o1                 13787
4  C[C@@H]1[C@H]2C[C@@H](C[C@H]1NCc1nc3ccccc3n1C1CCCCCC1)C2(C)C                 18549
5  Cc1oc(-c2ccc3c(c2)OCO3)nc1CN[C@@H]1C[C@@H]2C[C@H]([C@H]1C)C2(C)C                 14162
6  Cc1oc(C2CCCCC2)nc1C(=O)N[C@@H]1C[C@@H]2C[C@H]([C@H]1C)C2(C)C                 18963

###

Measured Avg. Tm, + 500 µM NADPH, listed per entry for reference.
Molecular target: TGR (Schistosoma mansoni)
Construct: made in house
Sequence (Q962Y6 1-598): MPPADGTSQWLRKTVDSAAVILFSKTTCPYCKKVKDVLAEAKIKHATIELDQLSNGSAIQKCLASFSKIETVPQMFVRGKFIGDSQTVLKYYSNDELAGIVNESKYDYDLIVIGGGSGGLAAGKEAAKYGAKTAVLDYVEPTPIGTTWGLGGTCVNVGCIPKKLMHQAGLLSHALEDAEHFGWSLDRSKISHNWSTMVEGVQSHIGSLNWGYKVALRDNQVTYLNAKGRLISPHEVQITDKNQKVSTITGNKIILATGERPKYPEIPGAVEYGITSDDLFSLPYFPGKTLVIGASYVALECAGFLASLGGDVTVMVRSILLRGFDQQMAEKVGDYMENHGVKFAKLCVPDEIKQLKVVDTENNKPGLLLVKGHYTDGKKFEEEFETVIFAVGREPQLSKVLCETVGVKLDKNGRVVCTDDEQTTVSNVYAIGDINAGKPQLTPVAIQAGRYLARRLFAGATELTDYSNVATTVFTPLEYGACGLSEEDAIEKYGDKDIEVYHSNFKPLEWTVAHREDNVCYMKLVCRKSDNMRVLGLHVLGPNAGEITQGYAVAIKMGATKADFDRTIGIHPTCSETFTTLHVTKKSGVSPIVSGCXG
Experiment: Thermal shift assay (TSA)
Type: binding
Conditions: TGR + 100 µM compound + 500 µM NADPH
Experimental: Samples were prepared by using a final concentration of 0.25 mg/ml TGR diluted in TGR reaction buffer to the desired volume. To evaluate reduced TGR, 500 µM NADPH was added. […] After the preincubation period, 20 µL samples were pipetted into a BioRad un-skirted PCR 96 well plate and sealed with MicroAmp^TM Optical Adhesive film. […] The SYBR green channel was used to detect fluorescence as the wavelength of flavin fluorescence overlaps with that of SYBR green. […]
MEASUREMENT_NAME: Avg. Tm, + 500 µM NADPH

> print(dat)
                                test.smiles         measurement.name  observed.measurement
1  C[C@@H]1[C@H]2C[C@@H](C[C@H]1NCc1nc3ccccc3n1C)C2(C)C  Avg. Tm, + 500 µM NADPH                    64
2  Cc1oc(C2CCCCC2)nc1C(=O)N[C@@H]1C[C@@H]2C[C@H]([C@H]1C)C2(C)C  Avg. Tm, + 500 µM NADPH                  73.5
3  Cc1oc(-c2ccc3c(c2)OCO3)nc1CN[C@@H]1C[C@@H]2C[C@H]([C@H]1C)C2(C)C  Avg. Tm, + 500 µM NADPH                  73.5
4  C[C@@H]1[C@H]2C[C@@H](C[C@H]1NCc1cc(-c3ccccc3)[nH]n1)C2(C)C  Avg. Tm, + 500 µM NADPH                 63.67
